Molecular target: T1, Human CD137 ECD (human)
T1 construct: entry includes C-terminal His-tag and biotin acceptor peptide; also called human CD137 extracellular domain; 4-1BB
T1 sequence (chain, as listed by the source limits assumed): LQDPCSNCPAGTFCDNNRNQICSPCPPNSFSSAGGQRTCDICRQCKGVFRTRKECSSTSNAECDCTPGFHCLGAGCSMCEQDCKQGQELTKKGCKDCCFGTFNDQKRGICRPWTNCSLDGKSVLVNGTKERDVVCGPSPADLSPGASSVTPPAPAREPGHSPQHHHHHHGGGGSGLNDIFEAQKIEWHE
Test: Biacore SPR, vs parent H183/L072
parameter measured: fold change of affinity (fold)
Give the value, in units of fold, as a plain number.

1. H183/L072 VL M27eR (antibody, name in Kabat numbering, V domains shown, Dual-Ig) VH: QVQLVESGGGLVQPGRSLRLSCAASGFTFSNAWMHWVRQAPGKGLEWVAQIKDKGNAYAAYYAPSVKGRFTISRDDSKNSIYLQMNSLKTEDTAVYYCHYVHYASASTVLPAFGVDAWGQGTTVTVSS VL: DIVMTQSPLSLPVTPGEPASISCQASQELVHRNRNTYLHWYQQKPGQAPRLLIYKVSNRFPGVPDRFSGSGSGTDFTLKISRVEAEDVGVYYCAQGTSVPFTFGQGTKLEIK | 1

Prompt line: # query: fold change of affinity of entry H183/L072 VL T97M (antibody, name in Kabat numbering, V domains shown, Dual-Ig) VH: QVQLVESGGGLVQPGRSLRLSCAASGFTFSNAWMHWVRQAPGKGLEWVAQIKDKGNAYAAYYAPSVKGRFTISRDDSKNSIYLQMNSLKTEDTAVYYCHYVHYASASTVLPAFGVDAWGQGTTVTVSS VL: DIVMTQSPLSLPVTPGEPASISCQASQELVHMNRNTYLHWYQQKPGQAPRLLIYKVSNRFPGVPDRFSGSGSGTDFTLKISRVEAEDVGVYYCAQGTSVPFMFGQGTKLEIK
Response line: 1.1

Prompt line: For H183/L072 VL N53L (antibody, name in Kabat numbering, V domains shown, Dual-Ig) VH: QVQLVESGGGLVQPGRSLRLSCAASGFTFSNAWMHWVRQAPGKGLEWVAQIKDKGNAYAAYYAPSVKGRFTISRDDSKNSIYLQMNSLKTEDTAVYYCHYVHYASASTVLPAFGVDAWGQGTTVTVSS VL: DIVMTQSPLSLPVTPGEPASISCQASQELVHMNRNTYLHWYQQKPGQAPRLLIYKVSLRFPGVPDRFSGSGSGTDFTLKISRVEAEDVGVYYCAQGTSVPFTFGQGTKLEIK , what is its reported fold change of affinity?
Response line: 0.2
